- Assay Target: hCIS-SH2-BC complex (recombinant trimeric complex of human GST-CIS-SH2 construct with Elongins B and C) (UniProt Q9NSE2 66-258; Q15370 1-118; Q15369 17-112)
- Method Summary: ITC
Non-standard residues stand in square brackets, D forms with d. No end group written: not given here. pY = N[C@@H](Cc1ccc(OP(=O)(O)O)cc1)C(=O)O
Entries and their pKd values follow.
Bear in mind: pKd is minus log10 of a mol/L concentration; give just that figure.

Consider the reported pKd for these binders:
> print(dat)
                                     binder  readout.value
1  LSGEDDA[pY]CTFPSRDD [phosphopeptide corresponding to Tyr392 within the IL-2Rβ (printed 'IL-2R13') cytoplasmic domain]           5.74
2  EIEACQV[pY]FTYDPYSE [phosphopeptide corresponding to Tyr355 within the IL-2Rβ (printed 'IL-2R13') cytoplasmic domain]           6.03

With those in mind, consider the next binder.
In: // returns reported pKd for input VYFTYDP[pY]SEEDPDEG [phosphopeptide corresponding to Tyr361 within the IL-2Rβ (printed 'IL-2R13') cytoplasmic domain]
Out: 5.82
